Recorded MTECC24 CFHBEC- Amax % for the following molecules
# experimentalSystem: delF508-CFTR (Homo sapiens, UniProt P13569, DEL508-508)
# Construct: functional activity of the CFTR channel (Chloride ion transport) in patient derived primary human bronchial epithelial cells; host or cells: patient-derived primary human bronchial epithelial cells (delF508-CFTR)
# Sequence (P13569 with tags, fused parts or gaps DEL508-508): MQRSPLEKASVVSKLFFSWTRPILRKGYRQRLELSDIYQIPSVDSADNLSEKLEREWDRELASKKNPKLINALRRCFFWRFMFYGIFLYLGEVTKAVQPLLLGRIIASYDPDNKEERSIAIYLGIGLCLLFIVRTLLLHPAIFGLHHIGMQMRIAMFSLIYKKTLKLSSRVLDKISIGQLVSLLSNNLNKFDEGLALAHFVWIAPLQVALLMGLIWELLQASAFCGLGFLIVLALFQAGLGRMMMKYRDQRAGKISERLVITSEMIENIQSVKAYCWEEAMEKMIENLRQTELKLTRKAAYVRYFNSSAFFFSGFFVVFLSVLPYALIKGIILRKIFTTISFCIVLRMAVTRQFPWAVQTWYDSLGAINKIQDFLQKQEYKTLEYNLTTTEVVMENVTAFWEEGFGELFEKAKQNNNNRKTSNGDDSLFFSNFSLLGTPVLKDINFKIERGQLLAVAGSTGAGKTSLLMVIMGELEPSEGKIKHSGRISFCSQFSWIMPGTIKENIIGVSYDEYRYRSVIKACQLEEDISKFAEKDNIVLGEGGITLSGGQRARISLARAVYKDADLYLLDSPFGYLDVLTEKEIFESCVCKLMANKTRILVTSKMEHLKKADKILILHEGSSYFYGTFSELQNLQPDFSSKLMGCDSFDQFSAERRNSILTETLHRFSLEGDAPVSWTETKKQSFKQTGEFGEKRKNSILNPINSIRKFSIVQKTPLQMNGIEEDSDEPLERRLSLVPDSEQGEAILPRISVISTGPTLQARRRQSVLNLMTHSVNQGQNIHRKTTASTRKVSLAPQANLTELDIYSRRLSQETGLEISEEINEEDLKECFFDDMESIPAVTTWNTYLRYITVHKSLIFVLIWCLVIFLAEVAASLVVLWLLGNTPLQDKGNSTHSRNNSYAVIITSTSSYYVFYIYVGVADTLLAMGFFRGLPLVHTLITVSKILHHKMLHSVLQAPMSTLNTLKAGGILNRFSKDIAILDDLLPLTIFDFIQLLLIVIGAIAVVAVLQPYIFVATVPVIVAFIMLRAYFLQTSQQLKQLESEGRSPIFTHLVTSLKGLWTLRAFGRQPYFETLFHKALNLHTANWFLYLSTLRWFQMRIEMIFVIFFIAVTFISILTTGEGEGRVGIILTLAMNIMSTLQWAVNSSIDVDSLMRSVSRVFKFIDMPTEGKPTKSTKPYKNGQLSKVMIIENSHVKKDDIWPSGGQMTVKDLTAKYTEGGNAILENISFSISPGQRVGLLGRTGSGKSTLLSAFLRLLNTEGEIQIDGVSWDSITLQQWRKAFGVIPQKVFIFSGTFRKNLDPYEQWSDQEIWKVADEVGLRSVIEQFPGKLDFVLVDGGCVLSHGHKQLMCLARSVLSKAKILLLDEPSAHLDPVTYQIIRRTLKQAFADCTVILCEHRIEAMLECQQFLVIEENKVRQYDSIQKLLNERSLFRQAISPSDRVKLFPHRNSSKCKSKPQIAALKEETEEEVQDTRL
# procedureText: Measurement of delF508-CFTR functional activity in primary human bronchial epithelial cells (HBECs) using Multi-Transepithelial Clamp Circuit (MTECC-24) assay
# Assay type: cell-based
# studyConditions: primary CF HBECs; test compound added 24h before assay plus potentiator; relative to reference combination (2 μM corrector + 0.5 μM potentiator)
Counter-ions that a name gives are not always drawn.
Return type: number; implicit unit %.

molecule	experimentalSystem	MTECC24 CFHBEC- Amax % (%)
Cc1ccccc1-c1nc(NS(=O)(=O)c2cccc(O[C@@H]3COC[C@@H]3O)n2)ccc1C(F)(F)F (single isomer, unassigned) [Example 296]	delF508-CFTR (Homo sapiens, UniProt P13569, DEL508-508)	54.3

Any idea what its MTECC24 CFHBEC- Amax % is? The molecule is Nc1cccc(S(=O)(=O)Nc2ccc(Cl)c(-c3cc(C(F)(F)F)ccc3Cl)n2)n1
54.2

Return reported MTECC24 CFHBEC- Amax %; argument: CN[C@@H]1CCN(c2cccc(S(=O)(=O)Nc3ccc(C(F)(F)F)c(-c4ccccc4C)n3)n2)C1 [Example 121, Hydrochloride]
79.6

Sample COc1ccc(F)cc1-c1nc(NS(=O)(=O)c2cccc(N3CCN(C(C)(C)C)CC3)n2)ccc1C(F)(F)F — what was its MTECC24 CFHBEC- Amax %?
76.0

Item Cc1ccc(F)cc1-c1nc(NS(=O)(=O)c2cccc(N3CCC[C@@H](C(=O)O)C3)n2)ccc1C(F)(F)F has what recorded MTECC24 CFHBEC- Amax %?
70.6

Fill in: MTECC24 CFHBEC- Amax % of Cc1cccc(C)c1-c1nc(NS(=O)(=O)c2cccc(N3CCC(C)(C(=O)O)CC3)n2)ccc1Cl is ___
59.4

Look at this molecule and give its reported MTECC24 CFHBEC- Amax %. Cc1ccccc1-c1nc(NS(=O)(=O)c2cccc(N3CCNC(=O)C3)n2)ccc1C(F)(F)F
64.5

Find the recorded MTECC24 CFHBEC- Amax % belonging to Cc1ccc(F)cc1-c1nc(NS(=O)(=O)c2ccnc(N3CCNCC3)c2)ccc1C(F)(F)F and report it.
50.5

Tell me the measured MTECC24 CFHBEC- Amax % of Cc1ccc(F)cc1-c1nc(NS(=O)(=O)c2ccnc(N3CC(O)C3)c2)ccc1C(F)(F)F , please.
49.4

State the recorded MTECC24 CFHBEC- Amax % for this entry: Cc1ccccc1-c1nc(NS(=O)(=O)c2cccc(N3CCC(C)(C(=O)O)CC3)n2)ccc1C(F)(F)F
67.2

Item under review: CC(C)c1ccccc1-c1nc(NS(=O)(=O)c2cccc(N3CCC[C@@H](C(=O)O)C3)n2)ccc1C(F)(F)F . Reported MTECC24 CFHBEC- Amax %?
63.5

I am curious: what MTECC24 CFHBEC- Amax % value has been reported for Cc1ccccc1-c1nc(NS(=O)(=O)c2cccc(N3CCN(CCO)CC3)n2)ccc1C(F)(F)F [Example 182, Hydrochloride] ?
89.6

Which MTECC24 CFHBEC- Amax % value belongs to Cc1ccccc1-c1nc(NS(=O)(=O)c2cccc(O[C@@H]3COC[C@@]3(C)O)n2)ccc1C(F)(F)F (single isomer, unassigned) ?
68.7

What measured MTECC24 CFHBEC- Amax % goes with Cc1ccccc1-c1nc(NS(=O)(=O)c2cccc(N[C@H]3CCCNC3)n2)ccc1C(F)(F)F [Example 105, Hydrochloride] ?
58.1

* * *

# experimentalSystem: horseradish peroxidase (HRP) tagged delF508-CFTR (Homo sapiens, UniProt P13569, DEL508-508)
# Construct: expressed in transfected cells
# Sequence (P13569 with tags, fused parts or gaps DEL508-508): as above
# procedureText: Measurement of delF508-CFTR-HRP surface expression in CFBE41o- cells;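 note: percent efficacy relative to reference corrector lumacaftor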
# Type: cell-based
# studyConditions: delF508-CFTR-HRP surface expression, CFBE41o- cells; read-out: DelF508-CFTR-HRP Amax %
Counter-ions that a name gives are not always drawn.
Each record here notes measured Emax.

Here are 6 molecules together with their reported answers.
molecule	Emax
Cc1cccc(C)c1-c1nc(NS(=O)(=O)c2cccc(N3CCN[C@H](CO)C3)n2)ccc1C(F)(F)F [Example 173, Hydrochloride]	682%
Cc1c(F)cccc1-c1nc(NS(=O)(=O)c2cccc(N3CCC[C@@H](C(=O)O)C3)n2)ccc1C(F)(F)F [Example 358]	869%
CC1(C(=O)O)CCN(c2cccc(S(=O)(=O)Nc3ccc(C(F)(F)F)c(-c4ccccc4C4CC4)n3)n2)CC1 [Example 237]	544%
O=S(=O)(Nc1ccc(C(F)(F)F)c(-c2ccc(F)cc2Cl)n1)c1cccc(N2CC(O)C2)n1 [Example 225]	361%
Cc1ccccc1-c1nc(NS(=O)(=O)c2cccc(N[C@@H]3CCOC[C@@H]3O)n2)ccc1C(F)(F)F (single isomer, unassigned) [Example 276]	523%
Cc1ccc(F)cc1-c1nc(NS(=O)(=O)c2cccc(N[C@@H]3[C@H](CO)[C@H]4CC[C@@H]3O4)n2)ccc1Cl [Example 128]	730%

# query: Emax of entry Cc1ccc(F)cc1-c1nc(NS(=O)(=O)c2cccc(N3CCN4C[C@@H](F)CC4[C@@H]3C)n2)ccc1Cl (stereo partly shown) [Example 135]
804%

* * *

# experimentalSystem: delF508-CFTR (Homo sapiens, UniProt P13569, DEL508-508)
# Construct: functional activity of the CFTR channel (Chloride ion transport) in patient derived primary human bronchial epithelial cells
# procedureText: Measurement of delF508-CFTR functional activity in primary human bronchial epithelial cells (HBECs) using Multi-Transepithelial Clamp Circuit (MTECC-24) assay
# studyConditions: primary CF HBECs; test compound added 24h before assay, in the presence of potentiator; mean of at least two replicates; read-out: MTECC24 CFHBEC- EC50
reportedEndpoint: pEC50
Kindly note that pEC50 refers to -log10 of the concentration in mol/L and answer with the value alone.

Give pEC50 (delF508-CFTR (Homo sapiens, UniProt P13569, DEL508-508)) of the following molecule: Nc1cccc(S(=O)(=O)Nc2ccc(Cl)c(-c3c(F)cccc3F)n2)n1
7.02

Observed pEC50 on delF508-CFTR (Homo sapiens, UniProt P13569, DEL508-508) for CC1(O)CN(c2cccc(S(=O)(=O)Nc3ccc(Cl)c(-c4ccc(F)cc4Cl)n3)n2)C1 , please.
7.32

Recall the recorded pEC50 for Cc1ccccc1-c1nc(NS(=O)(=O)c2cccc(N3CCNC4(CC4)C3)n2)ccc1C(F)(F)F with delF508-CFTR (Homo sapiens, UniProt P13569, DEL508-508) and state it.
7.74

* * *

# experimentalSystem: horseradish peroxidase (HRP) tagged delF508-CFTR (Homo sapiens, UniProt P13569, DEL508-508)
# Construct: expressed in transfected cells
# procedureText: Measurement of delF508-CFTR-HRP surface expression in CFBE41o- cells;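 note: percent efficacy relative to reference corrector lumacaftor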
# Assay type: cell-based
# studyConditions: delF508-CFTR-HRP surface expression, CFBE41o- cells; read-out: DelF508-CFTR-HRP Amax %
Structures can show the parent of a compound that is named as a salt.
// reported Emax for each item listed
Your answer is read as %, so omit the unit and give the number.

Some compounds with known Emax results, for comparison:
compound	unitTag	Emax
Cc1c(F)cccc1-c1nc(NS(=O)(=O)c2cccc(N3CC(C)(O)C3)n2)ccc1C(F)(F)F	%	303
COC(=O)C1CCN(c2cccc(S(=O)(=O)Nc3ccc(Cl)c(-c4c(C)cccc4C)n3)n2)CC1	%	875
Cc1ccccc1-c1nc(NS(=O)(=O)c2cccc(N3CCC[C@H](N)C3)n2)ccc1C(F)(F)F [Example 103, Hydrochloride]	%	370
Cc1ccccc1-c1nc(NS(=O)(=O)c2cccc(N3CCC(C)(N)CC3)n2)ccc1C(F)(F)F [Example 110, Hydrochloride]	%	372
CO[C@@H]1CNCC[C@H]1Nc1cccc(S(=O)(=O)Nc2ccc(C(F)(F)F)c(-c3ccccc3C)n2)n1 (racemic) [Example 116, Hydrochloride]	%	370

What value of measured Emax is listed for Nc1cccc(S(=O)(=O)Nc2ccc(Cl)c(-c3c(F)ccc(F)c3F)n2)n1 ?
141

GET /values?readout=Emax&item= Cc1ccc(F)cc1-c1nc(NS(=O)(=O)c2ccnc(N3CCOC[C@H]3C)c2)ccc1C(F)(F)F
413

Form field: reported Emax of Cc1ccc(C#N)cc1-c1nc(NS(=O)(=O)c2cccc(N3CC(C)(O)C3)n2)ccc1C(F)(F)F
554

I'd like to know its Emax. The compound in question is Cc1ccccc1-c1nc(NS(=O)(=O)c2cccc(N3CCC(C)(C(=O)O)CC3)n2)ccc1C(F)(F)F
448

// returns reported Emax for input Cc1c(F)cccc1-c1nc(NS(=O)(=O)c2cccc(N3CCNCC3)n2)ccc1Cl [Example 194, hydrochloride]
177

Param item = Cc1cccc(C)c1-c1nc(NS(=O)(=O)c2cccc(N3CC(O)C3)n2)ccc1Cl ; retrieve measured Emax.
465

I'd like to know its Emax. The compound in question is Cc1cccc(C)c1-c1nc(NS(=O)(=O)c2cccc(N3CCNCC3)n2)ccc1Cl [Example 163, Hydrochloride]
305

Quick check: Emax of Cc1cccc(C)c1-c1nc(NS(=O)(=O)c2cccc(N3CCC(C(=O)O)CC3)n2)ccc1Cl ?
493

Which Emax value is on record for Cc1cccc(C)c1-c1cccc(NS(=O)(=O)c2cccc(N)n2)n1 ?
209

Find the recorded Emax belonging to Cc1ccccc1-c1nc(NS(=O)(=O)c2cccc(N[C@@H]3CCNC3)n2)ccc1C(F)(F)F [Example 123, Hydrochloride] and report it.
218
